Provenance of the data: patent US10800757B2

Target: TRPC6 (Homo sapiens (Human))
Sequence (Q9Y210 whole entry, species assumed): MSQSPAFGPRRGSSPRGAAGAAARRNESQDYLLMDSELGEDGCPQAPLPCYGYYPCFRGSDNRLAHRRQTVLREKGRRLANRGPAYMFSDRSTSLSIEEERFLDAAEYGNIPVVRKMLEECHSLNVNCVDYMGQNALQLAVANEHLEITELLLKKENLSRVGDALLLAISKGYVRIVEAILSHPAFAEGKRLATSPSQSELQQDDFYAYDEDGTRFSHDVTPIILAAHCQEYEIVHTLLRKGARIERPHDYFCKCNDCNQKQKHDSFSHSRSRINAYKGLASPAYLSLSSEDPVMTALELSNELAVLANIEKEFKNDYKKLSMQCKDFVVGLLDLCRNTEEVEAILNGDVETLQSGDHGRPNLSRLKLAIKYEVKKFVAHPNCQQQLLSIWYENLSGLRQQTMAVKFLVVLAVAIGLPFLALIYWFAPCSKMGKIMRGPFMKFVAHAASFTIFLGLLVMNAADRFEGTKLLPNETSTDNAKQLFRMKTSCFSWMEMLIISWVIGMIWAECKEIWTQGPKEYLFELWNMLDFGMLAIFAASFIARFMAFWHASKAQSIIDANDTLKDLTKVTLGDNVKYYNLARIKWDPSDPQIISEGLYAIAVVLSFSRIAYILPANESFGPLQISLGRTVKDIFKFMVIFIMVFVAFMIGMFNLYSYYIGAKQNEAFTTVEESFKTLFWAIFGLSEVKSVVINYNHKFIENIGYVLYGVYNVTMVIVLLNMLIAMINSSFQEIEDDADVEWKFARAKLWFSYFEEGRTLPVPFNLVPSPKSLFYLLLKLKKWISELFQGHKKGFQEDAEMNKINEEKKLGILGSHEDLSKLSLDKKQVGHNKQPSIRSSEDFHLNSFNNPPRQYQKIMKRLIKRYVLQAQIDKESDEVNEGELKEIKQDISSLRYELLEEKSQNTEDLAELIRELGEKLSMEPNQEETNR
Test: High throughput screening assay: fluorescent calcium (Fluo4/AM) assay of TRPC6 channel activation by GSK1702934A in HEK293/TREx cells
Conditions: HEK293/TREx cells stably transfected with TRPC6; agonist GSK1702934A; 7 concentrations 20 μM to 0.027 μM, triplicate
READOUT LABEL: IC50 (nM)

Field: example entries. Status: answers known.
COc1cc(C(=O)N2CCC(c3nnc(N)cc3C)CC2)ncc1Oc1ccc(C(F)(F)F)cc1 [Compound 90, trifluoroacetic acid]    364
COc1cc(C(=O)N2C3COCC2CC(c2cnc(N)cc2OC)C3)ncc1Oc1ccccc1 (centres unmarked) [Compound 68]    630
COc1cc(C(=O)N2CCC(c3cnc(N)cc3OC3CC3)CC2)ncc1Oc1ccccc1 [Compound 84]    300
COc1cc(C(=O)N2CCC(c3ccc(N)nn3)CC2)ncc1Oc1ccc(OC(C)C)cc1 [Compound 6]    27
COc1cc(C(=O)N2CCC(c3cnc(N)cc3OC)CC2)ncc1OCC1CC(F)(F)C1 [Compound 45]    150

(I) COc1cc(C(=O)N2CCC(c3cc(OC)c(N)nn3)CC2)ncc1Oc1ccc(F)cc1 [Compound 11]
(II) COc1cc(C(=O)N2CCC(c3cnc(N)cc3OC)CC2)ncc1OCC(C)(C)C [Compound 59]
(III) COc1cc(C(=O)N2CCC(c3nnc(N)cc3C)CC2)ncc1Oc1ccccc1 [Compound 31, trifluoroacetic acid]
Data request: Put the items in sequence by IC50, from largest down. When ranking, write the labels in the order the request describes.
Data returned: II, III, I
(II: 340 nM, III: 120 nM, I: 27 nM)

(1) COc1cc(C(=O)N2CCC(c3cnc(N)cc3OC)CC2)ncc1OC[C@H]1C[C@@H](C(F)(F)F)C1 [Compound 93]
(2) COc1cc(C(=O)N2CCC(c3ccc(N)nc3)CC2)ncc1Oc1ccc(F)cc1 [Compound 14]
Data request: Which numeric IC50 is bigger, that of 1 or that of 2 ? // output: label of the selected item
Data returned: 1
(1: 595 nM, 2: 27 nM)

(a) COc1cc(C(=O)N2CCC(c3cnc(N)cc3OC)CC2)ncc1OCC1(CF)CC1 [Compound 64]
(b) COc1cc(C(=O)N2CCN(c3cnc(N)cc3OC)CC2)ncc1OCC1CC1 [Compound 61]
Data request: Which numeric IC50 is bigger, that of a or that of b ? // output: label of the selected item
Data returned: a

(A) COc1cc(C(=O)N2CCN(c3cnc(N)cc3OC)C[C@H]2CO)ncc1Oc1ccc(F)cc1 [Compound 63]
(B) COc1cc(C(=O)N2CCC(c3ccc(N)nn3)CC2)ncc1Oc1ccc(Cl)cc1 [Compound 34]
Data request: Given the listed items, does A or B have the lesser reported IC50? // output: label of the selected item
Data returned: B

(P) COc1ccc(Oc2cnc(C(=O)N3CCN(c4ccc(N)nc4)CC3)cc2OC)cc1 [Compound 12]
(Q) COc1cc(C(=O)N2CCC(c3cnc(N)cc3OC)CC2)ncc1OCC1CCC1 [Compound 53]
Data request: Which numeric IC50 is bigger, that of P or that of Q ? // output: label of the selected item
Data returned: Q
